The following are reported log10(IC50) results, target or system Replicase polyprotein 1ab (Severe acute respiratory syndrome coronavirus 2).
Values below are the log10 of the recorded IC50, with nM as the unit.

{"columns": ["CHEMICAL_STRING", "TARGET_OR_TEST_SYSTEM", "log10(IC50)"],
 "data": [
  ["CN1C(=O)[C@H](Cc2ccccc2)NC(=O)COCCOCCOc2ccc(F)cc2CN1C#N", "Replicase polyprotein 1ab (Severe acute respiratory syndrome coronavirus 2)", 3.42],
  ["Cc1csc(C(=O)N[C@H](C(=O)N[C@@H](Cc2ccccc2)C(=O)N(C)N(C#N)Cc2ccc(Cl)cc2)C(C)(C)C)c1", "Replicase polyprotein 1ab (Severe acute respiratory syndrome coronavirus 2)", 1.85]
]}

Fill in: Replicase polyprotein 1ab (Severe acute respiratory syndrome coronavirus 2) log10(IC50) for CN(C(=O)[C@H](Cc1ccccc1)NC(=O)[C@@H](NC(=O)C1CCCC1)C(C)(C)C)N(C#N)Cc1ccc(Cl)cc1 = 1.51

Fill in: Replicase polyprotein 1ab (Severe acute respiratory syndrome coronavirus 2) log10(IC50) for COc1ccc(OC)c(CN(C#N)N(C)C(=O)[C@H](Cc2ccccc2)NC(=O)OCc2ccccc2)c1 = 2.92

Fill in: Replicase polyprotein 1ab (Severe acute respiratory syndrome coronavirus 2) log10(IC50) for CN(C(=O)[C@H](Cc1ccc(F)cc1)NC(=O)[C@@H](NC(=O)c1cccs1)C(C)(C)C)N(C#N)Cc1cccc(Cl)c1F = 1.40

Fill in: Replicase polyprotein 1ab (Severe acute respiratory syndrome coronavirus 2) log10(IC50) for COc1ccc(CN(C#N)N(C)C(=O)[C@H](Cc2ccccc2)NC(=O)OCc2ccccc2)cc1 = 2.54

###

- TARGET_OR_TEST_SYSTEM: Replicase polyprotein 1ab (Severe acute respiratory syndrome coronavirus 2, UniProt P0DTD1)
OUTCOME_MEASURE: pKi
Worth noting: pKi values are minus log10 of concentrations stated in mol/L.

{"columns": ["CHEMICAL_STRING", "OUTCOME_MEASURE", "RECORDED_RESULT"],
 "data": [
  ["CN(C(=O)[C@H](Cc1ccccc1)NC(=O)[C@@H](NC(=O)c1cccs1)C1CCCCC1)N(C#N)Cc1ccc(Cl)cc1", "pKi", 7.89],
  ["CN1C(=O)[C@H](Cc2ccccc2)N(C(=O)COc2ccc(Cl)cc2Cl)CCCOc2c(Cl)cccc2CN1C#N", "pKi", 7.57],
  ["CN(C(=O)[C@H](Cc1ccccc1)NC(=O)[C@@H](NC(=O)c1cccs1)C(C)(C)C)N(C#N)Cc1ccc(Cl)cc1", "pKi", 7.88]
]}

Shift focus to the following entry.
pKi reading for CN(C(=O)[C@H](Cc1ccccc1)NC(=O)[C@@H](NC(=O)C1CCCC1)C(C)(C)C)N(C#N)Cc1ccc(Cl)cc1 : 7.64

###

- TARGET_OR_TEST_SYSTEM: Cathepsin S (Homo sapiens)
- Sequence (P25774 whole entry): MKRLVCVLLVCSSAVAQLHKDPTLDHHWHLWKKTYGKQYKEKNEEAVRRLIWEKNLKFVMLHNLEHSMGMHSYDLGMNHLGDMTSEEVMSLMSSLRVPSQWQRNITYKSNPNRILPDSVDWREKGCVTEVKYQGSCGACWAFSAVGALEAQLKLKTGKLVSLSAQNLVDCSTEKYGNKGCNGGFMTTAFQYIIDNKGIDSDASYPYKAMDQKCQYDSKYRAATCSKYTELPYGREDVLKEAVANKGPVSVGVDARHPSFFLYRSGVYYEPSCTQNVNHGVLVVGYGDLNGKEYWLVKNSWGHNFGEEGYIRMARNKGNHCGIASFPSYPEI
- EXPERIMENT_DESCRIPTION: Inhibition of recombinant human cathepsin S using Z-Phe-Arg-AMC as substrate incubated for 60 mins
OUTCOME_MEASURE: Ki (nM)
// note: answer is a bare numeric in nM

Previously resolved entries follow.
{"columns": ["CHEMICAL_STRING", "READOUT_UNIT", "RECORDED_RESULT"],
 "data": [
  ["CN1C(=O)[C@H](Cc2ccccc2)N(C(=O)[C@@H](NC(=O)c2cccs2)C(C)(C)C)CCCOc2ccc(Cl)c(F)c2CN1C#N", "nM", 3020],
  ["CN1C(=O)[C@H](Cc2ccccc2)NC(=O)COCCOCCOc2ccc(F)cc2CN1C#N", "nM", 765],
  ["CN1C(=O)[C@H](CCc2ccccc2)NC(=O)COCCOc2ccc(F)cc2CN1C#N", "nM", 179],
  ["CN1C(=O)[C@H](Cc2ccccc2)N(C(=O)COc2ccc(Cl)cc2Cl)CCCOc2ccc(Cl)c(F)c2CN1C#N", "nM", 1820],
  ["CN1C(=O)[C@H](CCc2ccccc2)NC(=O)COCCOCCOc2ccc(F)cc2CN1C#N", "nM", 662]
]}

Shift focus to the following entry.
Fill in: Cathepsin S (Homo sapiens) Ki for CN1C(=O)[C@H](Cc2ccccc2)N(C(=O)CNC(=O)c2cccs2)CCCOc2c(Cl)cccc2CN1C#N = 470

###

- TARGET_OR_TEST_SYSTEM: Replicase polyprotein 1ab (Severe acute respiratory syndrome coronavirus 2)
Here the recorded pIC50 is given for each entry.
Worth noting: pIC50 values are minus log10 of concentrations stated in mol/L.

Previously resolved entries follow.
{"columns": ["CHEMICAL_STRING", "RECORDED_RESULT"],
 "data": [
  ["CN(C(=O)[C@H](Cc1ccccc1)NC(=O)COc1ccc(Cl)cc1)N(C#N)Cc1ccc(Cl)cc1", 5.89],
  ["CN1C(=O)[C@H](Cc2ccccc2)N(C(=O)COc2ccc(Cl)cc2Cl)CCCOc2ccc(F)cc2CN1C#N", 7.60],
  ["CN(C(=O)[C@H](Cc1ccccc1)NC(=O)OCc1ccccc1)N(C#N)Cc1cccc(Br)c1", 7.07]
]}

pIC50 reading for CN(C(=O)[C@H](Cc1ccccc1)NC(=O)OCc1ccccc1)N(C#N)Cc1ccc(Br)cc1Cl : 6.84

###

- TARGET_OR_TEST_SYSTEM: Replicase polyprotein 1ab (Severe acute respiratory syndrome coronavirus 2) (UniProt P0DTD1)
- MEASUREMENT_SETUP: dose 1.0 µM, time 65.0 min
Here the recorded inhibition is given for each entry.
// note: answer is a bare numeric in %

Previously resolved entries follow.
{"columns": ["CHEMICAL_STRING", "READOUT_UNIT", "RECORDED_RESULT"],
 "data": [
  ["CC(C)c1ccc(OCC(=O)N[C@@H](Cc2ccccc2)C(=O)N(C)N(C#N)Cc2ccc(Cl)cc2)cc1", "%", 21],
  ["CN(C(=O)[C@H](Cc1ccccc1)NC(=O)C1(Oc2ccc(Cl)cc2Cl)CCC1)N(C#N)Cc1ccc(Cl)cc1", "%", 8],
  ["CN(C(=O)[C@H](Cc1ccccc1)NC(=O)[C@@H]1CCCN1C(=O)c1cccs1)N(C#N)Cc1ccc(Cl)cc1", "%", 13],
  ["CN(C(=O)[C@H](Cc1ccccc1)NC(=O)[C@@H]1Cc2ccccc2CN1C(=O)c1cccs1)N(C#N)Cc1ccc(Cl)cc1", "%", 21],
  ["CN(C(=O)[C@@H]1Cc2ccccc2CN1C(=O)COc1ccc(Cl)cc1Cl)N(C#N)Cc1ccc(Cl)cc1", "%", 11],
  ["CN(C(=O)[C@H](Cc1ccccc1)NC(=O)C(C)(C)Oc1ccc(Cl)cc1Cl)N(C#N)Cc1ccc(Cl)cc1", "%", 17]
]}

Shift focus to the following entry.
inhibition reading for CN(C(=O)[C@@H](NC(=O)[C@@H](NC(=O)c1cccs1)C(C)(C)C)C(c1ccccc1)c1ccccc1)N(C#N)Cc1cccc(Cl)c1F : 10

###

Here the recorded pIC50 is given for each entry.
- TARGET_OR_TEST_SYSTEM: Replicase polyprotein 1ab (Severe acute respiratory syndrome coronavirus 2, UniProt P0DTD1)
Worth noting: pIC50 values are minus log10 of concentrations stated in mol/L.

Previously resolved entries follow.
{"columns": ["CHEMICAL_STRING", "pIC50"],
 "data": [
  ["CN(C(=O)[C@H](Cc1ccccc1)NC(=O)OCc1ccccc1)N(C#N)Cc1ccc(Br)c(F)c1", 6.69],
  ["COc1cccc(OCC(=O)N[C@@H](Cc2ccccc2)C(=O)N(C)N(C#N)Cc2ccc(Cl)cc2)c1", 5.91],
  ["CN(C(=O)[C@H](Cc1ccccc1)NC(=O)OCc1ccccc1)N(C#N)Cc1ccc(Br)c(Cl)c1", 6.72]
]}

pIC50 reading for CN(C(=O)[C@H](Cc1ccccc1)NC(=O)COc1ccc(Cl)cc1Cl)N(C#N)Cc1ccc(Cl)cc1 : 5.74

###

Here the recorded pIC50 is given for each entry.
- TARGET_OR_TEST_SYSTEM: Replicase polyprotein 1ab (Severe acute respiratory syndrome coronavirus 2, UniProt P0DTD1)
Worth noting: pIC50 values are minus log10 of concentrations stated in mol/L.

Previously resolved entries follow.
{"columns": ["CHEMICAL_STRING", "pIC50"],
 "data": [
  ["CN(C(=O)[C@H](Cc1ccccc1)NC(=O)OCc1ccccc1)N(C#N)Cc1ccc(Br)cc1F", 6.98],
  ["CN(C(=O)[C@H](Cc1ccccc1)NC(=O)OCc1ccccc1)N(C#N)Cc1ccc(Cl)cc1", 6.59],
  ["CN(C(=O)[C@H](Cc1ccccc1F)NC(=O)[C@@H](NC(=O)c1cccs1)C(C)(C)C)N(C#N)Cc1cccc(Cl)c1F", 7.72],
  ["CCCS(=O)(=O)N[C@H](C(=O)N[C@@H](Cc1ccccc1)C(=O)N(C)N(C#N)Cc1ccc(Cl)cc1)C(C)(C)C", 6.81]
]}

pIC50 reading for CN1C(=O)[C@H](Cc2ccccc2)N(C(=O)CNC(=O)c2cccs2)CC2(CC2)COc2c(Cl)cccc2CN1C#N : 7.52

pIC50 reading for CN(C(=O)[C@H](Cc1ccccc1)NC(=O)CNc1ccc(F)c(F)c1)N(C#N)Cc1ccc(Cl)cc1 : 6.46

pIC50 reading for CN(C(=O)[C@H](Cc1ccccc1)NC(=O)COc1cccc2ccccc12)N(C#N)Cc1ccc(Cl)cc1 : 5.97

pIC50 reading for CN(C(=O)[C@H](Cc1cccs1)NC(=O)[C@@H](NC(=O)c1cccs1)C(C)(C)C)N(C#N)Cc1cccc(Cl)c1F : 8.05

pIC50 reading for CN(C(=O)[C@H](Cc1ccccc1)NC(=O)[C@@H](NC(=O)C1(F)CC1)C(C)(C)C)N(C#N)Cc1ccc(Cl)cc1 : 7.30

pIC50 reading for COc1cccc(CN(C#N)N(C)C(=O)[C@H](Cc2ccccc2)NC(=O)OCc2ccccc2)c1F : 6.93
